# procedure.text: DMT solubility in various solvents (super saturated mixture, HPLC)
# Type: physicochemical
# condition.info: ethanol
measure.name: solubility

Query :: What solubility value was documented for this compound, CN(C)CCc1c[nH]c2ccccc12 [DMT, N, N-Dimethyltryptamine] ?
Result :: > 98 mg/mL

* * *

# procedure.text: DMT solubility in various solvents (super saturated mixture, HPLC)
# Format: physicochemical
# condition.info: methyl isobutyl ketone
measure.name: solubility

Query :: What solubility value was documented for this compound, CN(C)CCc1c[nH]c2ccccc12 [DMT, N, N-Dimethyltryptamine] ?
Result :: > 90 mg/mL

* * *

# procedure.text: DMT solubility in various solvents (super saturated mixture, HPLC)
# Format: physicochemical
# condition.info: acetonitrile
measure.name: solubility

Query :: What solubility value was documented for this compound, CN(C)CCc1c[nH]c2ccccc12 [DMT, N, N-Dimethyltryptamine] ?
Result :: > 94 mg/mL
